// data source = patent US12606540B2

- assay_explanation: Pharmacokinetic evaluation in mice (IV and PO)
- Assay type: in vivo, female Balb/c mice
- study_conditions: female, Balb/c, mouse; IV 0.2 mg/kg, plasma
For each entry below, report its C0 value.
Give bare numbers, in nM.

A selection of reference data follows.
chemical_string	endpoint_unit	reported_measurement
CCn1c(CO)nn(-c2cc(O[C@@H](C)C(F)(F)F)c(/C(F)=C/c3cccnc3OC)cc2F)c1=O	nM	640
CCn1c(CO)nn(-c2cc(O[C@@H](C)C(F)(F)F)c(/C(F)=C/c3ncccc3Cl)cc2F)c1=O	nM	354
CCn1c(CO)nn(-c2cc(O[C@@H](C)C(F)(F)F)c(/C(F)=C/c3cccnc3Cl)cc2F)c1=O	nM	451

Suppose we examine the compound `CCn1c(CO)nn(-c2cc(O[C@@H](C)C(F)(F)F)c(/C(F)=C/c3cccnc3C(F)F)cc2F)c1=O` ; what C0 value has been reported?
419

---

For each entry below, report its MRT last value.
- assay_explanation: Pharmacokinetic evaluation in mice (IV and PO)
- Format: in vivo, female Balb/c mice
- study_conditions: female, Balb/c, mouse, plasma; PO 1 mg/kg; read-out: MRT0-last
Answers are plain numbers, in h.

compound	reported_measurement
CCn1c(CO)nn(-c2cc(O[C@@H](C)C(F)(F)F)c(/C(F)=C/c3ncccc3Cl)cc2F)c1=O [Compound 5]	6.99
CCn1c(CO)nn(-c2cc(O[C@@H](C)C(F)(F)F)c(/C(F)=C/c3cccnc3OC)cc2F)c1=O [Compound 6]	7.76
CCn1c(CO)nn(-c2cc(O[C@@H](C)C(F)(F)F)c(/C(F)=C/c3cccnc3C(F)F)cc2F)c1=O [Compound 39]	8.67

With those in mind, consider the next compound.
Suppose we examine the compound CCn1c(CO)nn(-c2cc(O[C@@H](C)C(F)(F)F)c(/C(F)=C/c3cccnc3Cl)cc2F)c1=O [Compound 26] ; what MRT last value has been reported?
8.9

---

- assay_explanation: Pharmacokinetic evaluation in mice (IV and PO)
- Type: in vivo, female Balb/c mice
- study_conditions: female, Balb/c, mouse, plasma; IV 0.2 mg/kg
For each entry below, report its clearance value.
One number for each entry, in mL/min/kg.

Give measured clearance for every item shown.
1. CCn1c(CO)nn(-c2cc(O[C@@H](C)C(F)(F)F)c(/C(F)=C/c3cccnc3Cl)cc2F)c1=O [Compound 26]
2. CCn1c(CO)nn(-c2cc(O[C@@H](C)C(F)(F)F)c(/C(F)=C/c3cccnc3C(F)F)cc2F)c1=O [Compound 39]
3. CCn1c(CO)nn(-c2cc(O[C@@H](C)C(F)(F)F)c(/C(F)=C/c3ncccc3Cl)cc2F)c1=O [Compound 5]
4. CCn1c(CO)nn(-c2cc(O[C@@H](C)C(F)(F)F)c(/C(F)=C/c3cccnc3OC)cc2F)c1=O [Compound 6]

1: 2.32; 2: 2.86; 3: 4.38; 4: 3.14

---

- Tested on: influenza virus A/Weiss/43 (H1N1)
- assay_explanation: Influenza virus cytopathic effect (CPE) experiment in MDCK cells
- Assay type: cell-based
- study_conditions: unidentified influenza virus, H1N1, 120 h, 5 days incubation, CCK8
observation_type: EC50 (nM)
Give bare numbers, in nM.

A selection of reference data follows.
chemical_string	EC50 (nM)
CCn1c(CO)nn(-c2cc(O[C@@H](C)C(F)(F)F)c(/C(F)=C/c3cccnc3OC)cc2F)c1=O	67
CCn1c(CO)nn(-c2cc(O[C@@H](C)C(F)(F)F)c(/C(F)=C/c3cnccc3Cl)cc2F)c1=O	43
CCn1c(CO)nn(-c2cc(O[C@@H](C)C(F)(F)F)c(/C(F)=C/c3cccnc3C(F)F)cc2F)c1=O	42
CCn1c(CO)nn(-c2nc(O[C@@H](C)C(F)(F)F)c(/C=C/c3c(F)cccc3Cl)cc2F)c1=O	10
CCn1c(CO)nn(-c2cc(O[C@@H](C)C(F)(F)F)c(/C(F)=C/c3c(F)cncc3Cl)cc2F)c1=O	20
CCn1c(CO)nn(-c2cc(O[C@@H](C)C(F)(F)F)c(/C(F)=C/c3cccnc3Cl)cc2F)c1=O	2.4
CCn1c(CO)nn(-c2cc(O[C@@H](C)C(F)(F)F)c(/C(F)=C/c3ncccc3Cl)cc2F)c1=O	70

With those in mind, consider the next compound.
Please state recorded EC50 (tested on influenza virus A/Weiss/43 (H1N1)) of `CCn1c(CO)nn(-c2cc(O[C@@H](C)C(F)(F)F)c(/C=C/c3c(F)cccc3Cl)cc2F)c1=O`
42
